tested on: CCRF-CEM leukemia; test: NCI-60 one-dose screen, 48 h; settings: 10 µM unless noted
About 83,000 compounds went through this panel and 20% of them were active in at least one assay; those are over-represented in the sample as a whole. Calls of active or inactive are those of the source. How the source made its calls: active means growth percent below 10; inactive means the rest.
Answer with one of the outcomes given here: active, inactive

> print(dat)
                                   molecule  classification
1  CC(=O)C1=C(C)NC(NNc2ccccc2)=NC1c1ccc([N+](=O)[O-])cc1 (stereo not given)        inactive

Input line: Can you look up the reported call for COc1ccc(OC)c(CCn2cncc2-c2c[nH]c3ccc(Cl)cc23)c1 for me?
Output line: inactive

Input line: What outcome does the record of this test show for O=c1oc2ccc(-c3ccc(F)cc3F)cc2c(=O)n1-c1ccc(Br)cc1F ?
Output line: inactive

Input line: What did this assay record as the result for N#C/C(=C\c1ccc(-c2ccc(Cl)c(Cl)c2)o1)C(=O)Nc1ncc(Cc2ccc(Cl)cc2)s1 ?
Output line: inactive

Input line: Please share the test call associated with CCOC(=O)C(=O)Nc1ccc2c(ccn2C(=O)c2cccc(F)c2)c1 .
Output line: active
